Target: Gastrin-releasing peptide receptor (Rattus norvegicus)
Experiment: Tested for the inhibition of bombesin-stimulated amylase release in rat pranceatic acini; also: test concentration or dose not given here
Format: functional
endpoint.label: Release
Units required after the number.

Batch request: Release for each of the following compounds.
1. CCCCC[C@H](CC(C)C)NC(=O)[C@H](Cc1c[nH]cn1)NC(=O)CNC(=O)[C@@H](NC(=O)[C@H](C)NC(=O)[C@H](Cc1c[nH]c2ccccc12)NC(=O)[C@@H](Cc1c[nH]cn1)NC(=O)C(C)(C)C)C(C)C
2. CC(C)C[C@@H](CN[C@@H](CC(C)C)C(N)=O)NC(=O)[C@H](Cc1c[nH]cn1)NC(=O)CNC(=O)[C@@H](NC(=O)[C@H](C)NC(=O)[C@H](Cc1c[nH]c2ccccc12)NC(=O)[C@H](CCC(N)=O)NC(=O)[C@H](CC(N)=O)NC(=O)CNC(=O)[C@H](CC(C)C)NC(=O)[C@H](CCCN=C(N)N)NC(=O)[C@H](CCC(N)=O)NC(=O)[C@@H]1CCC(=O)N1)C(C)C
3. CC(=O)NC[C@H](CC(C)C)NC(=O)[C@H](Cc1c[nH]cn1)NC(=O)CNC(=O)[C@@H](NC(=O)[C@H](C)NC(=O)[C@H](Cc1c[nH]c2ccccc12)NC(=O)[C@H](Cc1c[nH]cn1)NC(=O)[C@@H](Cc1ccccc1)NC(C)=O)C(C)C
4. CSCC[C@H](NC[C@H](CC(C)C)NC(=O)[C@H](Cc1c[nH]cn1)NC(=O)CNC(=O)[C@@H](NC(=O)[C@H](C)NC(=O)[C@H](Cc1c[nH]c2ccccc12)NC(=O)[C@H](N)Cc1ccccc1)C(C)C)C(N)=O

1: 5.3%; 2: 2.8%; 3: 2.9%; 4: 5.3%
